test: Ocular exposure after eye drop administration; type: in vivo; details: retina; mouse; bilateral topical instillation of 0.1% formulation QDX1; 2 hr; read-out: Concentration (nM) retina
recorded_endpoint: concentration at 2 h

COc1cc(Nc2nc(Nc3ccc(OCCN4CCCC4)cc3)ncc2C)ccc1Cl    495 nM
Cc1cnc(Nc2ccc(OCCN3CCCC3)cc2)nc1Nc1cccc2c1OCO2    816 nM
COc1cc(Nc2nc(Nc3ccc(N4CCNCC4)cc3)ncc2C)ccc1Cl    406 nM

For each of the compounds below, state concentration at 2 h.
1. Cc1cnc(Nc2ccc(N3CCN(C)CC3)cc2)nc1Nc1ccc(Cl)c2[nH]ccc12
2. COc1cc(Nc2nc(Nc3ccc(OC4CCNCC4)cc3)ncc2C)ccc1Cl

Response given:
["2120 nM", "267 nM"]
